Experiment: West Nile virus CPE inhibition, SAR follow-up, cell-based, synthesized analogs (AID 2238)
Conditions: West Nile virus CPE inhibition in cells; measured here: maximum CPE inhibition observed, at 40 µM, stronger effect = higher value unless noted
endpointName: max CPE inhibition

                                   compound        endpointname  reported
0  O=C(CSc1nc2ccccc2c(=O)n1-c1ccccc1)Nc1ccc2c(c1)CCC2  max CPE inhibition       72%
1                Cc1cccc2nc3n(c(=O)c12)CCC3  max CPE inhibition     1.92%
2  COc1ccc(-c2csc(N(C(=O)c3ccccc3Cl)C(C)C)n2)cc1  max CPE inhibition     1.92%
3  O=[N+]([O-])c1ccc2c(c1)C(O)N1CCCC1=N2 (centres undefined)  max CPE inhibition     1.83%
